Reported Kd values for a set of binders
- tested.on: T1, 14-3-3-ζ (UniProt P63104 1-245)
- T1 construct: 14-3-3 protein zeta; Expressed from the same modified pET16b vector as the integrin tails (His10, 3C site); also called 14-3-3-ζ wt; unlabeled 14-3-3-ζ; not shown: His10, N-terminal, cleaved
- T1 sequence: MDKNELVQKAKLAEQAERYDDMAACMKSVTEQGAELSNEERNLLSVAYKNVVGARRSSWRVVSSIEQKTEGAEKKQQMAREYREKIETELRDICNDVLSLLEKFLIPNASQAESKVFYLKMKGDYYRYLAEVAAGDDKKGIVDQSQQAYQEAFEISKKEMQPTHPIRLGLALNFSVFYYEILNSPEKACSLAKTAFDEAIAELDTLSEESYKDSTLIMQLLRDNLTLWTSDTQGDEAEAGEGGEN
- experiment.description: ITC; integrin tail fragment in the cell (80-200 μM), 14-3-3-ζ in the syringe (0.75-2 mM); 298 K; 20 mM sodium phosphate, 50 mM NaCl, pH 6.5; one-site model
- details: both partners purified
Non-standard residues stand in square brackets, D forms with d. No end group written: not given here. pS = N[C@@H](COP(=O)(O)O)C(=O)O

Example binders with recorded Kd:
binder="GPLGSKAGFFKRQYKDILQEENRRDSWSYINSKSNDD (domain or fragment, human (from the printed UniProt entry), residues from the cloning tag at the N-terminus; integrin α4 cytoplasmic tail, residues 1001-1032 of UniProt P13612, with S1011D; 15N-labelled for NMR, unlabelled for ITC; also called α4 S1011D; α4 phospho-mimetic; not shown: His10, N-terminal, cleaved) [α4 integrin cytoplasmic tail S1011D]" reported_measurement="~60 µM"
binder="GFFKRQYK[pS]ILQEENRRDSWSYINSKSNDD (integrin α4 cytoplasmic tail, residues 1003-1032 of UniProt P13612; S1011 is phospho-serine; also called phosphorylated α4-derived peptide; source: synthetic peptide, bought: GL Biochem Ltd. (Shanghai)) [α4-30pS phospho-peptide]" reported_measurement="~24 µM"

Next up:
[Q] For the binder FKRQYK[pS]ILQE (integrin α4 cytoplasmic tail, residues 1005-1015 of UniProt P13612; S1011 is phospho-serine; also called short phosphorylated α4 integrin peptide; source: synthetic peptide, bought: GL Biochem Ltd. (Shanghai)) [α4-11pS phospho-peptide] , what Kd is on record?
[A] > 300 µM
